The measured values listed here are drawn from patent US20240084017A1.

Molecular target: human Mac-1 (integrin αMβ2, CD11b/CD18) (human, UniProt P11215 17-1152; P05107 23-769)
Test: flow cytometry, HEK293/Mac-1 cells, PBS/MnCl2 (Mn2+), 10 µg/ml of this antibody; binding of reporter mAb KIM127 read
EXPERIMENTAL_READOUT: KIM127 (Expression relative to IgG4)

Consider the binder anti-Mac-1 antibody clone 24F08 (antibody, human IgG4, V domains shown) VH: EVQLVESGGGLVQPGGSLRLSCAASGFTFSSYWMSWVRQAPGKGLEWVSIINYSGREADYADSVKGRFTISRDNSKNTLYLQMNSLRAEDTAVYYCARDGSYVGQAHEAFDIWGQGTLVTVSS VL: DIQMTQSPSSLSASVGDRVTITCRASQSISKYLAWYQQKPGKAPKLLIYGTSNLQSGVPSRFSGSGSGTDFTLTISSLQPEDFATYYCQQSRSWPLTFGQGTKVEIK and give its measured KIM127 (Expression relative to IgG4). 1.73 relative to IgG4
